assay: chemical genetic growth profiling, strain panel (AID 1159580);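 also: tested at 20 µM; growth read once vehicle control cultures reached saturation at 30 °C; 1 = growth at the plate median or of vehicle wells; lower values mean less growth of the strain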; conditions: S. cerevisiae deletion strains, growth OD, locus YDR334W, strain swr1, hits give low values
In all, about 5,500 compounds went through this assay and about 2,000 (36%) were called active. Inconclusive results (about 18%) are left out. This is one part of the list.
Recorded normalized growth for the following compounds
# print the numeric value only

Input: # return recorded normalized growth for entry COC(=O)C[C@H]1C(C)(C)C(=O)[C@@H]2CC3=C4CC(=O)O[C@@H](c5ccoc5)[C@]4(C)CCC3[C@@]1(C)C2=O (some centres not stated)
Output: 0.986

Input: # return recorded normalized growth for entry CC(C)(C)NCC(O)c1ccccc1Cl (configuration not stated)
Output: 0.996

Input: # return recorded normalized growth for entry C[C@H](N)[C@H](O)c1ccc(O)c(O)c1
Output: 0.997

Input: # return recorded normalized growth for entry C[C@H]1[C@H]2CCC3C4CC=C5C[C@@H](N(C)C)CC[C@]5(C)C4CC[C@@]32CN1C (some centres not stated)
Output: 0.996

Input: # return recorded normalized growth for entry CO[C@H]1/C=C/O[C@@]2(C)Oc3c(C)c(O)c4c(O)c(c(/C=N/N5CCN(C)CC5)c(O)c4c3C2=O)NC(=O)/C(C)=C\C=C\C(C)[C@H](O)[C@@H](C)[C@@H](O)[C@@H](C)[C@@H](OC(C)=O)[C@@H]1C (some centres not stated)
Output: 1.02

====

Recorded normalized growth for the following molecules
assay: chemical genetic growth profiling, strain panel (AID 1159580); settings: S. cerevisiae deletion strains, growth OD, locus YAL013W, strain DEP1, hits give low values
Out of some 5,500 compounds screened, about 2,000 (36%) were called active. Not shown: some 18% with an inconclusive outcome. This is one part of the list.
# print the numeric value only

Examples with answers:
{"columns": ["molecule", "value kind", "reported"],
 "data": [
  ["CCCCC1=NC2(CCCC2)C(=O)N1Cc1ccc(-c2ccccc2-c2nn[nH]n2)cc1", "normalized growth", 0.984],
  ["OC[C@@H](O)[C@@H](O[C@@H]1O[C@H](CO)[C@@H](O)[C@H](O)[C@H]1O)[C@H](O)[C@@H](O)CO", "normalized growth", 1.01],
  ["C/C=C/c1ccc2c(c1)OCO2", "normalized growth", 1.01],
  ["O=C(O)c1ccccc1Nc1ccccc1", "normalized growth", 1.01],
  ["CCCc1cc(Br)c(-n2cccc2)c(Br)c1", "normalized growth", 0.998],
  ["CC(=O)N/C(=C/c1ccc2c(c1)OCO2)C(=O)O", "normalized growth", 1.01]
]}

Input: # return recorded normalized growth for entry C=CCC1(C(C)CCC)C(=O)N=C(S)NC1=O (centres undefined)
Output: 0.989

Input: # return recorded normalized growth for entry Cc1c(-c2ccnc(N)n2)nnn1-c1ccc(Cl)cc1Cl
Output: 1

Input: # return recorded normalized growth for entry Fc1cc2n[nH]nc2cc1Cl
Output: 1

Input: # return recorded normalized growth for entry NC(Cc1ccc(O)c(O)c1)C(=O)O (centres undefined)
Output: 0.997

Input: # return recorded normalized growth for entry CC(=O)OCC1(C)CCC2(C)CCC3(C)C4=CCc5c(cc(OC(C)=O)c(OC(C)=O)c5C)C4(C)CCC3(C)C2C1 (centres undefined)
Output: 1.01

Input: # return recorded normalized growth for entry O=C(O)CCC(=O)C(=O)O
Output: 1.01

====

assay: chemical genetic growth profiling, strain panel (AID 1159580);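 also: tested at 20 µM; growth read once vehicle control cultures reached saturation at 30 °C; 1 = growth at the plate median or of vehicle wells; lower values mean less growth of the strain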; conditions: S. cerevisiae deletion strains, growth OD, locus YLR320W, strain mms22
In all, about 5,500 compounds went through this assay and about 2,000 (36%) were called active. Inconclusive results (about 18%) are left out. No stated cut-off is given here; in the data, active means normalized growth mostly below about 0.91 (no sharp cut-off); inconclusive means no clear call, values can overlap the other calls; inactive means mostly above about 0.92. This is one part of the list.
Parameter call: string, one of yes (1) (active), no (0) (inactive)

Example results:
{"columns": ["compound", "class assignment"],
 "data": [
  ["CC1(C)C(C(Cl)Cl)C2(Cl)C(Cl)C(Cl)C1(Cl)C2(Cl)Cl (centres undefined)", "no (0)"],
  ["C=C(CC)C(=O)c1ccc(OCC(=O)O)c(Cl)c1Cl", "no (0)"],
  ["O=C1C=CC2=C3c4cc(O)c(O)cc4CC3(O)COC2=C1O (centres undefined)", "no (0)"]
]}

Attention now shifts to the item below.
Input: Fill in: this test's call for CCN(CC)CCOc1ccc(/C(=C(\Cl)c2ccccc2)c2ccccc2)cc1 is ___
Output: yes (1)

====

assay: chemical genetic growth profiling, strain panel (AID 1159580);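 also: tested at 20 µM; growth read once vehicle control cultures reached saturation at 30 °C; 1 = growth at the plate median or of vehicle wells; lower values mean less growth of the strain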; settings: S. cerevisiae deletion strains, growth OD, locus YMR219W, strain ESC1, hits give low values
The campaign covered roughly 5,500 compounds. About 2,000 (36%) were called active. Roughly 18% stayed inconclusive and do not appear here. The list shows a part of the results.
value kind: normalized growth
# print the numeric value only

Examples with answers:
{"columns": ["compound", "normalized growth"],
 "data": [
  ["CC1CCN(C(=O)CC#N)CC1", 1],
  ["COc1ccc(NS(=O)(=O)c2c(C)noc2C)cc1", 0.996],
  ["Nc1ccccc1SCC(=O)Nc1c(F)cccc1F", 0.998],
  ["CN(C)C=Nc1nnc(Sc2ncccc2[N+](=O)[O-])s1", 1.01]
]}

Input: # return recorded normalized growth for entry OC(CNCCc1cccs1)COc1ccccc1 (stereo not given)
Output: 1

Input: # return recorded normalized growth for entry CC(=O)N/C(=C/c1ccc2c(c1)OCO2)C(=O)O
Output: 1

Input: # return recorded normalized growth for entry O=C(NC(=S)NCc1ccncc1)c1ccccc1
Output: 1

Input: # return recorded normalized growth for entry CC(C)(C)NS(=O)(=O)NC(C)(C)C
Output: 0.995

Input: # return recorded normalized growth for entry CC(C)(C)C(=O)NC(=S)Nc1cccc(C(F)(F)F)c1
Output: 0.978

Input: # return recorded normalized growth for entry CC(=O)c1sc(SCc2ccc(Cl)cc2)c2c1CC(C)(C)CC2=O
Output: 1.03

Input: # return recorded normalized growth for entry COC(=O)c1cc([N+](=O)[O-])ccc1NC(C)=O
Output: 0.999

Input: # return recorded normalized growth for entry O=C(Nc1ccc(C(F)(F)F)cc1)Nc1ccccc1C(=O)O
Output: 0.971

Input: # return recorded normalized growth for entry Cc1oc(S(=O)(=O)N(C)C)cc1C(=O)O
Output: 1.01

Input: # return recorded normalized growth for entry CCn1nc(C)c(Br)c1-c1nc(-c2ccc(C(F)(F)F)cc2)no1
Output: 0.999

Input: # return recorded normalized growth for entry CC(C)c1ccc(NC(=S)NC(=O)c2ccc(C(F)(F)F)cc2)cc1
Output: 1.01

====

assay: chemical genetic growth profiling, strain panel (AID 1159580);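 also: tested at 20 µM; growth read once vehicle control cultures reached saturation at 30 °C; 1 = growth at the plate median or of vehicle wells; lower values mean less growth of the strain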; conditions: S. cerevisiae deletion strains, growth OD, locus YLR262C, strain YPT6 (second series), hits give low values
About 2,000 (36%) of roughly 5,500 compounds were called active. Another 18% or so got no clear call; they are omitted. Some of the results follow.
value kind: normalized growth
# print the numeric value only

Examples with answers:
{"columns": ["compound", "reported"],
 "data": [
  ["Oc1c(Cl)cc(Cl)c2cccnc12", 0.0862],
  ["C[n+]1cccc(C(=O)[O-])c1", 0.947],
  ["CC(=O)O[C@@H]1CC2C(C)(C)C=CC(=O)[C@]2(C)C2CC[C@@]3(C)[C@H](c4ccoc4)OC(=O)C4OC43[C@@]21C (stereo partly specified)", 1],
  ["Oc1c(Br)cc(Br)c2cccnc12", 0.0797],
  ["COc1ccccc1OCCNCC(O)COc1cccc2[nH]c3ccccc3c12 (stereo unspecified)", 1.05]
]}

Input: # return recorded normalized growth for entry CC(C)(C)NC[C@@H](O)COc1nsnc1N1CCOCC1
Output: 1.03

Input: # return recorded normalized growth for entry CC(=O)Nc1ccc(S(=O)(=O)c2ccc(NC(C)=O)cc2)cc1
Output: 1.04

Input: # return recorded normalized growth for entry COC(=O)C[C@H]1C(C)(C)C(=O)[C@@H]2CC3=C4CC(=O)O[C@@H](c5ccoc5)[C@]4(C)CCC3[C@@]1(C)C2=O (stereo partly specified)
Output: 0.912

Input: # return recorded normalized growth for entry CC(=O)O[C@@H]1C[C@@]2(C)[C@H](c3ccoc3)C[C@H]3O[C@]32[C@]2(C)C(=O)C(O)=C3C(C)(C)C(=O)C=C[C@]3(C)C12 (stereo partly specified)
Output: 0.669

Input: # return recorded normalized growth for entry NC(=NCCC[C@H](N)C(=O)O)NC(CCC(=O)O)C(=O)O (stereo partly specified)
Output: 0.996

Input: # return recorded normalized growth for entry Nc1ccc([As](=O)(O)O)cc1
Output: 1

Input: # return recorded normalized growth for entry O=C1C=CC2=C3c4cc(O)c(O)cc4CC3(O)COC2=C1O (stereo unspecified)
Output: 0.875

Input: # return recorded normalized growth for entry CC1(C)C(=O)C=C[C@@]2(C)C1=C(O)C(=O)[C@]1(C)C2CC[C@@]2(C)[C@H](c3ccoc3)C[C@H]3O[C@]321 (stereo partly specified)
Output: 0.624

Input: # return recorded normalized growth for entry O=C(NC(=O)c1c(F)cccc1F)Nc1ccc(Cl)cc1
Output: 0.974

Input: # return recorded normalized growth for entry COC(C)(C)CCC[C@H](C)C/C=C/C(C)=C/C(=O)OC(C)C
Output: 0.953

Input: # return recorded normalized growth for entry C=CC(C1=CC(=O)C(OC)=CC1=O)c1ccccc1 (stereo unspecified)
Output: 0.518

Data credit: PubChem BioAssay AID1159580
